These data points were gathered from PubChem BioAssay.

- TEST_PROTOCOL: probe aLAP1 signal on lysate-treated microarray – cell lysate, small-molecule microarray, COS7 lysate, primary screen (AID 1124);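 also: lysate comes from COS7 cells expressing LAP1 and is applied at 0.3 µg/mL; score merges spot fluorescence near 667 nm with signal-to-noise over triplicate slides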
- CONDITION: higher = more signal; small-molecule microarray, COS7 cell lysate, probe aLAP1, fluorescence unless noted
Can you tell me composite z-score for the items I'm about to list?
Please reply with the number alone, leaving off any unit.

Task: Need composite z-score, item CCCc1cc2c(n1CCO)C(C)C1CN(C(=O)c3ccccc3)C(C)(C(=O)OC)C21 (stereo unspecified)
Output: 1.09

Task: Need composite z-score, item O=P(c1ccccc1)(c1ccccc1)N1CC2(CC2)CC(O)(c2ccccc2)C1 (stereo unspecified)
Output: 1.19

Task: Need composite z-score, item "CCCC[C@@H]1C[C@H]1[C@@H](NP(=O)(c1ccccc1)c1ccccc1)c1ccc(Cl)cc1"
Output: -0.162

Task: Need composite z-score, item CN1CCC(c2ccc(CO)cc2)=CC1C1CC1 (stereo unspecified)
Output: -0.334

Task: Need composite z-score, item OCc1ccc(C2=CC(c3cccs3)N(Cc3cccc(OC(F)(F)F)c3)CC2)cc1 (stereo unspecified)
Output: -0.368

Task: Need composite z-score, item COc1cc2c(cc1O)C(C)N(C)CC2 (stereo unspecified)
Output: 0.209

* * *

- SYSTEM: E3 ubiquitin-protein ligase XIAP (Homo sapiens)
- TEST_PROTOCOL: small molecules binding XIAP protein – biophysical, small-molecule microarray, fluorescence 635 nm, primary screen (AID 1181);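 also: score merges 667 nm emission and signal to noise over triplicate slides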
- CONDITION: higher = more signal
ASSAY_READOUT: composite z-score

Task: Need composite z-score, item "C[C@@H]1Cc2c(cnc3c2CN(C)CC3)CO1"
Output: 0.276

Task: Need composite z-score, item OCc1ccc(C2=CC(C3CC3)N(Cc3sc4ccccc4c3Cl)CC2)cc1 (stereo not given)
Output: 0.539

Task: Need composite z-score, item "C[C@H]1O[C@H]2C3=C(C(=O)[C@@H]4O[C@@H]4[C@@H]3O)[C@@H]1[C@@H]1[C@@H](C)OC=C3[C@@H](O)[C@H]4O[C@H]4C(=O)[C@]312"
Output: -0.136

Task: Need composite z-score, item "COC(=O)[C@@]1(Cc2ccc(F)cc2)[C@H]2c3cc(C(=O)N(C)C)[nH]c3C[C@H]2CN1C(=O)c1ccccc1"
Output: 0.0546

Task: Need composite z-score, item CN1CCC(c2ccc(CO)cc2)=CC1C1CC1 (stereo not given)
Output: 0.284

* * *

- TEST_PROTOCOL: Pseudomonas biofilm growth suppression – PAO1 strain, BacTiter-Glo luminescence, LB-PBS, primary screen (AID 1144)
- CONDITION: P. aeruginosa PAO1 biofilm, 12 h, higher = more signal
Calls of active or inactive are those of the source. How the calls were made is not given here.
Can you tell me z-score for the items I'm about to list?

Task: Need z-score, item CCCc1cc2c(n1Cc1cccc(Cl)c1)C(C)C1CN(C(=O)c3ccccc3)C(C)(C(=O)OC)C21 (centres undefined)
Output: 0.00978 (inactive)

Task: Need z-score, item "COC(=O)[C@H]1C(=O)c2ccccc2O[C@@](C(=O)OC)(c2ccccc2)[C@@H]1c1ccccc1"
Output: 0.352 (inactive)

Task: Need z-score, item CN1CCC(c2ccc(CO)cc2)=CC1c1cccs1 (centres undefined)
Output: 0.196 (inactive)

Task: Need z-score, item C=C(CC1(C(C)NP(=O)(c2ccccc2)c2ccccc2)CC1)c1ccccc1 (centres undefined)
Output: -0.917 (inactive)
